Tested on: 22RV1 (Prostate Carcinoma)
Experiment: combination Emax (second highest fraction inhibited in the dose matrix, 72 h); higher = more inhibition; extreme values may be limits of the assay
Assign combination Emax to each entry below.
Write the number on its own, no unit after it.

Data request: Dear colleague, I am looking for the recorded combination Emax of the following compound: Cc1c2c(nn1C)CSCc1cc(n(C)n1)CSc1cc(c3ccccc3c1)OCCCc1c(C(=O)O)n(C)c3c-2c(Cl)ccc13 [AZD5991] + CS(=O)(=O)CCNCc1ccc(-c2ccc3ncnc(Nc4ccc(OCc5cccc(F)c5)c(Cl)c4)c3c2)o1 [Lapatinib] (first compound max 1 µM, 7x7, partner max 10 µM)
Data returned: 0.55

Data request: Also need Cn1cnc2c(F)c(Nc3ccc(Br)cc3Cl)c(C(=O)NOCCO)cc21 [Selumetinib] + CCN(CCO)CCCOc1ccc2c(Nc3cc(CC(=O)Nc4cccc(F)c4)[nH]n3)ncnc2c1 [AZD2811] (first compound max 10 µM, 7x7, partner max 1 µM) , thanks.
Data returned: 0.383

Data request: Also need CCN(CCO)CCCOc1ccc2c(Nc3cc(CC(=O)Nc4cccc(F)c4)[nH]n3)ncnc2c1 [AZD2811] + C=CCn1c(=O)c2cnc(Nc3ccc(N4CCN(C)CC4)cc3)nc2n1-c1cccc(C(C)(C)O)n1 [AZD1775] (first compound max 1 µM, partner max 1 µM) , thanks.
Data returned: 0.234

Data request: Also need Cc1c2c(nn1C)CSCc1cc(n(C)n1)CSc1cc(c3ccccc3c1)OCCCc1c(C(=O)O)n(C)c3c-2c(Cl)ccc13 [AZD5991] + Cn1cnc2c(F)c(Nc3ccc(Br)cc3Cl)c(C(=O)NOCCO)cc21 [Selumetinib] (first compound max 1 µM, 7x7, partner max 3 µM) , thanks.
Data returned: 0.498
